Target: SARS-COV-2 RBD extracellular domain expressed with a C-terminal myc-myc-hexahistidine tag (SARS-CoV-2)
Experiment: SPR (Biacore), mAb captured by anti-human Fc, RBD-mmH in solution, 25 C
koff values for the binders below.
QUANTITY_MEASURED: koff (s⁻¹)

{"BINDER": "mAb15157 (antibody, V domains shown) VH: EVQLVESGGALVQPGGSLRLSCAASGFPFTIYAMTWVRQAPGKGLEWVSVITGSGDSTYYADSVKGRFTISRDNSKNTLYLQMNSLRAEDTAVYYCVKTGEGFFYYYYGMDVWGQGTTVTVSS VL: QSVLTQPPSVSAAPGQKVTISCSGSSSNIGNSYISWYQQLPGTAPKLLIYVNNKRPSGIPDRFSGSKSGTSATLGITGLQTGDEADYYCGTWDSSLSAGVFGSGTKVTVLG", "QUANTITY_MEASURED": "koff", "RECORDED_NUMBER": 0.00125}
{"BINDER": "mAb14286 (antibody, V domains shown) VH: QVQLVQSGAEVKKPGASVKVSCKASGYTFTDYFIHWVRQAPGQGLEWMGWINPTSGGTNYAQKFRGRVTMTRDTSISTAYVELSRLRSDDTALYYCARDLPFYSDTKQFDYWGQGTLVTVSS VL: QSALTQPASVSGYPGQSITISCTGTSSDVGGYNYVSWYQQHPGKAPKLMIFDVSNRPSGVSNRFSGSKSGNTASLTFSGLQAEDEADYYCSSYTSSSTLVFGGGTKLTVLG", "QUANTITY_MEASURED": "koff", "RECORDED_NUMBER": 0.0104}
{"BINDER": "mAb14285 (antibody, V domains shown) VH: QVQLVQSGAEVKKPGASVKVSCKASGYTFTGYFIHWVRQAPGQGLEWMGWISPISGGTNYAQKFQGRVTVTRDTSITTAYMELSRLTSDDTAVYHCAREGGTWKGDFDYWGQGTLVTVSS VL: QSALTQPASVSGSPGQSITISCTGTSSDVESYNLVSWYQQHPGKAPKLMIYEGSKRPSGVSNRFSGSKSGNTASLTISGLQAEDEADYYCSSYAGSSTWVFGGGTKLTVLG", "QUANTITY_MEASURED": "koff", "RECORDED_NUMBER": 0.0211}
{"BINDER": "mAb14230 (antibody, V domains shown) VH: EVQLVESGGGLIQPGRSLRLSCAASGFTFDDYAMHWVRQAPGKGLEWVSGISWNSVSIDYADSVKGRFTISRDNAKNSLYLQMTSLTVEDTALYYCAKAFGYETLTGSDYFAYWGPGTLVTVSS VL: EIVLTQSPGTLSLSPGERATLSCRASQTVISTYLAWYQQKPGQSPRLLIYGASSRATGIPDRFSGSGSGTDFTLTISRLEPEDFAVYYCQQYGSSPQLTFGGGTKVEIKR", "QUANTITY_MEASURED": "koff", "RECORDED_NUMBER": 0.00852}
{"BINDER": "mAb15170 (antibody, V domains shown) VH: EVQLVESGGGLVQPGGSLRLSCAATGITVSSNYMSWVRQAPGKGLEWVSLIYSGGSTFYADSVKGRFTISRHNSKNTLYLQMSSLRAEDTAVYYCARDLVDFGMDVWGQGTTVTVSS VL: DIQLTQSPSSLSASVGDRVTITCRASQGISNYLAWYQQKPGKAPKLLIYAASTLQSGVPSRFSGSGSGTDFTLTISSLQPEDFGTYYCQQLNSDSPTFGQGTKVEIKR", "QUANTITY_MEASURED": "koff", "RECORDED_NUMBER": "1.53e-05"}
